Taken from ChEMBL document CHEMBL1126875.

Biological target: Leukotriene B4 receptor 1 (Homo sapiens)
Sequence (Q15722 whole entry): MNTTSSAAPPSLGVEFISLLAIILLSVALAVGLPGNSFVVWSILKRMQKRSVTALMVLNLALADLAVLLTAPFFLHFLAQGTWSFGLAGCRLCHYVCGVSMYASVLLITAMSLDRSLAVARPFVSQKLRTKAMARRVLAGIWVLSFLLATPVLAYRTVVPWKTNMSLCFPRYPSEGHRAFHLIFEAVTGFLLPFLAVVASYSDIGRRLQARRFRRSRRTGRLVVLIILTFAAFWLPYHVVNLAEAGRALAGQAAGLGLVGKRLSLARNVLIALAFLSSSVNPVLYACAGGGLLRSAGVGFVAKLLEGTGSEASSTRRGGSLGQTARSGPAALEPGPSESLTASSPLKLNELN
Assay: Binding affinity against Leukotriene B4 receptor on U-937 cell membrane preparations in competitive binding assay with [3H]LTB4
value-type: Ki (nM)
Just the number in nM, nothing appended.

Observed Ki, Leukotriene B4 receptor 1 (Homo sapiens), `COc1ccc(/C=C/CCCCOc2ccc(C(=O)c3cccc(C(=O)O)c3)cc2CCC(=O)O)cc1` : 360

---

Biological target: Leukotriene B4 receptor 1 (Homo sapiens)
Experiment: Binding affinity against Leukotriene B4 receptor on intact differentiated U-937 cells in competitive binding assay with [3H]LTB4
Type: cell-based
# key: entry, value: log10 of Ki
Transform log10 | Measure Ki | Unit µM

Solved cases below.
- structure-smiles: "Cn1c(N)nc(Cc2ccccc2)c1Cc1ccccc1"
  log10 of Ki: 1.28
- structure-smiles: "COc1cccc(Cc2nc(N)n(C)c2Cc2ccccc2)c1"
  log10 of Ki: 1.43
- structure-smiles: "Cn1c(N)nc(Cc2ccc(CCCCO)cc2)c1Cc1ccccc1"
  log10 of Ki: 0.38
- structure-smiles: "Cn1c(N)nc(Cc2ccc3c(c2)OCO3)c1Cc1ccc2c(c1)OCO2"
  log10 of Ki: 0.54

Switching to the query record.
Observed log10 of Ki, Leukotriene B4 receptor 1 (Homo sapiens), `Nc1nc(Cc2ccccc2)c(Cc2ccccc2)[nH]1` : 0.95
